src = PubChem BioAssay AID1159580

compounds and their reported normalized growth
experimental-protocol: chemical genetic growth profiling, strain panel (AID 1159580);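 also: tested at 20 µM; growth read once vehicle control cultures reached saturation at 30 °C; 1 = growth at the plate median or of vehicle wells; lower values mean less growth of the strain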
test-context: S. cerevisiae deletion strains, growth OD, locus YOR265W, strain rbl2, active compounds read low
The campaign covered roughly 5,500 compounds. About 2,000 (36%) were called active. Roughly 18% stayed inconclusive and do not appear here. The list shows a part of the results.
observed-property: normalized growth

| compound | observed-property | value-observed |
| --- | --- | --- |
| O=c1c(O)c(-c2ccccc2)oc2cc(O)ccc12 | normalized growth | 0.71 |
| O=C(O)C1=C(CSc2nnnn2CS(=O)(=O)O)CS[C@@H]2C(NC(=O)[C@H](O)c3ccccc3)C(=O)N12 (some centres not stated) | normalized growth | 0.991 |
| Cn1c(=O)[nH]c2nc[nH]c2c1=O | normalized growth | 0.994 |
| COc1ccc([C@@H](C)C(=O)c2ccc(O)cc2O)cc1 | normalized growth | 0.969 |
| C=C(C)C1Cc2c(ccc3c(=O)c4c(oc23)COc2cc(OC)c(OC)cc2-4)O1 (configuration not stated) | normalized growth | 0.993 |
| CCCN(CCC)c1c([N+](=O)[O-])cc(C(F)(F)F)cc1[N+](=O)[O-] | normalized growth | 1.01 |
| CNC(=O)Oc1ccccc1OC(C)C | normalized growth | 0.985 |
